kon values by entry
assay system: T1, recombinant human IL-6 (human, UniProt P05231 30-212)
T1 construct: Flowed in solution over the captured antibodies
T1 sequence (P05231 30-212 limits assumed): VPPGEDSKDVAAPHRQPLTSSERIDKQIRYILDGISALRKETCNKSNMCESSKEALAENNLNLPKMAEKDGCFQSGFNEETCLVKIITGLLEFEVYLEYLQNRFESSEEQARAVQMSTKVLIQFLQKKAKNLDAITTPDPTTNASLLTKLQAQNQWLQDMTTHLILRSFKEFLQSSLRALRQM
test: SPR (Biacore), purified IgG on Protein A, 37 C
Entry rule: numbers only, all in M⁻¹ s⁻¹.

{"binder": "anti-IL-6 antibody, heavy chain WT, light chain I27F (antibody, IgG1, V domains shown, Full IgG1 tested; V domains derived as in m2) VH: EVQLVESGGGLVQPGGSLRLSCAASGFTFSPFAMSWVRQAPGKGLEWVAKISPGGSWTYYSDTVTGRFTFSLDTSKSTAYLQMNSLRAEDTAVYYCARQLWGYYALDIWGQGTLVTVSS VL: DIQLTQSPSSLSASVGDRVTITCSASFSVSYMYWYQQKPGKAPKLLIYDMSNLASGVPSRFSGSGSGTDFTLTISSLQPEDFATYYCMQWSGYPYTFGQGTKVEIK", "unit string": "M⁻¹ s⁻¹", "kon": "1.01e+06"}
{"binder": "anti-IL-6 antibody, heavy chain WT, light chain I27L (antibody, IgG1, V domains shown, Full IgG1 tested; V domains derived as in m2) VH: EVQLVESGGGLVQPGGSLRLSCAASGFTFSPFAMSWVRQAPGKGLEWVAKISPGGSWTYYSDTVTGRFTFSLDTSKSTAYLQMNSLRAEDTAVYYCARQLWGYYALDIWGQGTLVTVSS VL: DIQLTQSPSSLSASVGDRVTITCSASLSVSYMYWYQQKPGKAPKLLIYDMSNLASGVPSRFSGSGSGTDFTLTISSLQPEDFATYYCMQWSGYPYTFGQGTKVEIK", "unit string": "M⁻¹ s⁻¹", "kon": 811000}

Continue with the binder presented below.
Check the records and state kon for anti-IL-6 antibody, heavy chain I108F, light chain WT (antibody, IgG1, V domains shown, Full IgG1 tested; V domains derived as in m2) VH: EVQLVESGGGLVQPGGSLRLSCAASGFTFSPFAMSWVRQAPGKGLEWVAKISPGGSWTYYSDTVTGRFTFSLDTSKSTAYLQMNSLRAEDTAVYYCARQLWGYYALDFWGQGTLVTVSS VL: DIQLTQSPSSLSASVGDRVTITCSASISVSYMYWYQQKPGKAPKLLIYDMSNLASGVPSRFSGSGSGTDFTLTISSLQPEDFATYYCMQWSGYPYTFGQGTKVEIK 683000
